Value source: the supplement of paper PMC12350171

# Test system: P. vulgatus RND KO;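 further: active when median AUC fell below 0.1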
# assay.remarks: growth AUC normalised to DMSO control (median) (fraction of control); higher = less growth inhibition, active = hit call of the paper
# details: 20 µM
// label = MET if growth AUC normalised to DMSO control is not less than 1, otherwise NOT MET

Decide: growth AUC normalised to DMSO control of Oc1cc(Cl)ccc1Oc1ccc(Cl)cc1Cl >= 1? NOT MET

// repeat for C=CC[C@]1(O)CC[C@H]2[C@@H]3CCC4=CCCC[C@@H]4[C@H]3CC[C@@]21C and report NOT MET

// repeat for C=C(C)[C@@H]1[C@H]2OC(=O)[C@@H]1[C@]1(O)C[C@H]3O[C@]34C(=O)O[C@H]2[C@]14C and report MET

// repeat for C[N+]12CCC(CC1)C(OC(=O)C(O)(c1ccccc1)c1ccccc1)C2 (stereo unspecified) [Clidinium bromide] and report MET

// repeat for O=[N+]([O-])O[C@@H]1CO[C@H]2[C@@H]1OC[C@@H]2O [Isosorbide mononitrate] and report NOT MET

// repeat for O=c1[nH]c2ccccc2n1C1CCN(CCCC(c2ccc(F)cc2)c2ccc(F)cc2)CC1 [Pimozide] and report MET

// repeat for CCCCCC[C@H]1C(=O)O[C@H](C)[C@H](NC(=O)c2cccc(NC=O)c2O)C(=O)O[C@@H](C)[C@@H]1OC(=O)CC(C)C [Antimycin A] and report MET

// repeat for CC[C@@H](C(=O)[C@@H](C)[C@@H](O)[C@H](C)[C@@H]1O[C@@H]([C@@H](CC)C(=O)O)CC[C@@H]1C)[C@H]1O[C@]2(C=C[C@@H](O)[C@]3(CC[C@@](C)([C@H]4CC[C@](O)(CC)[C@H](C)O4)O3)O2)[C@H](C)C[C@@H]1C [Salinomycin sodium] and report NOT MET
